Data provenance: patent US9340577B2

Consider the following compounds and their measured IC50 readings.
Test target: DR7 (DRB1*0701) (Homo sapiens, UniProt P01903+P01911, A100R/A102G/A103Q/D57E/D86V/E43K/F76Y/K127E/L162R/M171V/P40G/Q125H/Q99D/R33Q/R42Y/R54Q/S133A/S66F/T210M/V115G/Y107V/Y59L/Y89S)
Protocol notes: biochemical
Type: binding
Measured property: IC50

| Compound | Measured value |
| --- | --- |
| CC[C@H](C)[C@H](NC(=O)CNC(=O)[C@H](Cc1ccc(O)cc1)NC(=O)[C@H](CC(C)C)NC(=O)[C@H](CO)NC(=O)[C@H](CC(C)C)NC(=O)[C@H](CC(C)C)NC(=O)[C@H](CO)NC(=O)[C@H](CC(C)C)NC(=O)[C@H](CCC(=O)O)NC(=O)[C@H](CO)NC(=O)[C@@H](N)CC(C)C)C(=O)N[C@@H](Cc1c[nH]cn1)C(=O)N[C@@H](CCCCN)C(=O)N[C@@H](CCC(N)=O)C(=O)O [Peptide 68.0044] | > 20 µM |
| CSCC[C@H](NC(=O)CNC(=O)[C@H](CC(C)C)NC(=O)[C@H](CCC(N)=O)NC(=O)[C@@H](NC(=O)[C@H](CC(C)C)NC(=O)[C@H](CCC(N)=O)NC(=O)CNC(=O)[C@@H](N)Cc1ccccc1)[C@@H](C)O)C(=O)N[C@@H](CCC(=O)O)C(=O)N[C@@H](CCC(N)=O)C(=O)N[C@@H](Cc1c[nH]cn1)C(=O)N[C@@H](Cc1ccc(O)cc1)C(=O)N[C@@H](CCC(=O)O)C(=O)N[C@@H](CC(C)C)C(=O)O [Peptide 68.0028] | > 20 µM |
